System: Cryptococcus neoformans
Assay: Antifungal activity against Cryptococcus neoformans at 20 ug/mL
Assay type: functional, organism-based
Calls of active or inactive are those of the source. The calls are words filed in the database; no cut-off is given here.
Recorded Metric: Activity

{"Compound": "CC(C)CC(=O)c1c(O)cc(O)c(C=O)c1O", "Reported Value": "inactive"}
{"Compound": "CC(=O)c1c(O)cc(O)c(C(C)=O)c1O", "Reported Value": "inactive"}
{"Compound": "CC(=O)c1c(O)cc(O)c(C=O)c1O", "Reported Value": "inactive"}
{"Compound": "CC(=O)c1c(O)c(C)c(O)c(C=O)c1O", "Reported Value": "inactive"}

Entry CC(C)=CCc1c(O)c(C=O)c(O)c(C(=O)/C(C)=C/O)c1O : reported Activity = ?
inactive

Next record, please: CC(C)CCc1c(O)c(C=O)c(O)c(C=O)c1O
inactive

Try Cc1c(O)c(C=O)c(O)c(C=O)c1O next.
inactive

Ok, now CC(C)CC(=O)c1c(O)c(C=O)c(O)c(C=O)c1O [JENSENONE]
inactive

----------
I'd be grateful if you could share measured IC50 for these entries.
Tested on: Leishmania donovani
Experiment: Antileishmanial activity against Leishmania donovani promastigotes after 48 hrs by Alamar blue assay
Format: functional, organism-based
Answer with the figure and its unit, nothing else.

For CC(C)CC(=O)c1c(O)cc(O)c(C=O)c1O , what is its reported IC50?
27 µg/mL

Can you check CC(C)CCOc1cc(O)c(C(=O)CC(C)C)c(O)c1C=O next?
4.2 µg/mL

Please do the same for Cc1c(O)c(C=O)c(O)c(C(=O)CC(C)C)c1O [GRANDINOL] as well.
21 µg/mL

Request: C=CCOc1cc(O)c(C(=O)CC(C)C)c(O)c1C(=O)CC(C)C
14 µg/mL

C=CCOc1cc(O)c(C(=O)CC(C)C)c(O)c1C=O ?
5.3 µg/mL

Next compound: CC(=O)c1c(O)cc(OCCC(C)C)c(C=O)c1O
7.8 µg/mL

And then C/C(=C\O)C(=O)c1c(O)cc(O)c(C=O)c1O , what is it?
29 µg/mL

Continue with C[C@@H]1[C@H](O)[C@@H](C)/C=C/C=C/C=C/C=C/C=C/C=C/C=C/[C@H](O[C@@H]2O[C@H](C)[C@@H](O)[C@H](N)[C@@H]2O)C[C@@H]2O[C@](O)(C[C@@H](O)C[C@@H](O)[C@H](O)CC[C@@H](O)C[C@@H](O)CC(=O)O[C@H]1C)C[C@H](O)[C@H]2C(=O)O [AMPHOTERICIN B]
0.32 µg/mL

Then CC(C)CCOc1cc(O)c(CCC(C)C)c(O)c1C=O ?
10 µg/mL

----------
Test system: Leishmania donovani
Assay: Antileishmanial activity against Leishmania donovani promastigotes after 48 hrs by Alamar blue assay
Assay type: functional, organism-based
Could you please report measured IC90 for the items listed next?

Which IC90 reading was recorded for the compound C[C@@H]1[C@H](O)[C@@H](C)/C=C/C=C/C=C/C=C/C=C/C=C/C=C/[C@H](O[C@@H]2O[C@H](C)[C@@H](O)[C@H](N)[C@@H]2O)C[C@@H]2O[C@](O)(C[C@@H](O)C[C@@H](O)[C@H](O)CC[C@@H](O)C[C@@H](O)CC(=O)O[C@H]1C)C[C@H](O)[C@H]2C(=O)O ?
0.9 µg/mL

Then what about the compound CC(=O)c1c(O)cc(OCCC(C)C)c(C=O)c1O ?
> 40 µg/mL

Now the same for Cc1c(O)c(C=O)c(O)c(C(=O)CC(C)C)c1O
39 µg/mL

Now give it for CC(C)CCOc1cc(O)c(CCC(C)C)c(O)c1C=O too.
36 µg/mL

----------
System: Leishmania donovani
Test: Antileishmanial activity against Leishmania donovani promastigotes after 48 hrs by Alamar blue assay
Format: functional, organism-based
Binary label based on IC50 with cut-off 20 µg/mL: below gives T, not below gives F.

Please state whether IC50 is below 20 µg/mL for CC(=O)c1c(O)cc(OCCC(C)C)c(C(C)=O)c1O
F

What do we get for CC(=O)c1c(O)cc(O)c(C(C)=O)c1O ?
F

Input CC(C)CCOc1cc(O)c(C(=O)CC(C)C)c(O)c1C(=O)CC(C)C
F

Can you handle N=C(N)c1ccc(OCCCCCOc2ccc(C(=N)N)cc2)cc1 next?
T

Consider next the compound CC(C)CC(=O)c1c(O)c(C=O)c(O)c(C=O)c1O in the same way.
T

----------
System: LLC-PK1
Experiment: Cytotoxicity against LLC-PK1 cells up to 4.76 ug/mL by neutral red assay
Assay type: cell-based, Sus scrofa
Conditions: pig
Recorded Metric: Activity

Solved entries:
{"Substance Smiles": "CCC(=O)c1c(O)c(C)c(O)c(C=O)c1O", "Target Desc": "LLC-PK1", "Reported Value": "Not Active"}
{"Substance Smiles": "CC(C)CC(=O)c1c(O)c(C=O)c(O)c(C=O)c1O", "Target Desc": "LLC-PK1", "Reported Value": "Not Active"}
{"Substance Smiles": "CC(=O)c1c(O)c(C)c(O)c(C=O)c1O", "Target Desc": "LLC-PK1", "Reported Value": "Not Active"}
{"Substance Smiles": "CC(C)CCc1c(O)c(C=O)c(O)c(C=O)c1O", "Target Desc": "LLC-PK1", "Reported Value": "Not Active"}

API: the following record is the query input.
Need Activity of Cc1c(O)c(C=O)c(O)c(C=O)c1O , thanks.
Not Active

----------
For each record, write down the corresponding IC90.
System: Leishmania donovani
Assay: Antileishmanial activity against Leishmania donovani promastigotes after 48 hrs by Alamar blue assay
Assay type: functional, organism-based
Write the number in µg/mL without appending the unit.

Given the molecule C=CCOc1cc(O)c(C(=O)CC(C)C)c(O)c1C(=O)CC(C)C , what is its reported IC90?
36

Ok, now N=C(N)c1ccc(OCCCCCOc2ccc(C(=N)N)cc2)cc1
4.9

What about this molecule? C=CCOc1cc(O)c(C(=O)CC(C)C)c(O)c1C=O
31

Subsequent entry: CC(C)CC(=O)c1c(O)cc(O)c(C=O)c1O
40

Continue with CC(C)CC(=O)c1c(O)c(C=O)c(O)c(C=O)c1O
35

----------
System: Leishmania donovani
Assay: Antileishmanial activity against Leishmania donovani promastigotes after 48 hrs by Alamar blue assay
Assay type: functional, organism-based
Recorded Metric: IC90

Reported IC90 for Leishmania donovani, given CC(=O)c1c(O)cc(OCCC(C)C)c(C(C)=O)c1O ?
> 40 µg/mL

Request: CC(C)CCOc1cc(O)c(C(=O)CC(C)C)c(O)c1C=O
> 40 µg/mL

Could you do the same for CC(=O)c1c(O)cc(O)c(C(C)=O)c1O , please?
> 40 µg/mL

Also check CC(C)=CCc1c(O)c(C=O)c(O)c(C(=O)/C(C)=C/O)c1O
> 40 µg/mL

Same question for CC(C)CCOc1cc(O)c(C(=O)CC(C)C)c(O)c1C(=O)CC(C)C please.
> 40 µg/mL

Subsequent entry: C/C(=C\O)C(=O)c1c(O)cc(O)c(C=O)c1O
> 40 µg/mL
